B1: HSP90AB1 (parent)
chain: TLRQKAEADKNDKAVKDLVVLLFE

# Variants of: B1
# Method Description: protein stability index of a GFP-peptide fusion (GPS, HEK-293T) (PSI 1-6); higher = more stable;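 note: lentivirally expressed fusions sorted by FACS into six bins by GFP to DsRed ratio, PSI derived from sequencing read proportions per bin multiplied by bin number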
# Experimental Parameters: c terminus: a fixed tail appended
If the reported protein stability index equals or exceeds 3, assign label 1. If not, assign label 0.

| Polymer Sequence | Group Label |
| --- | --- |
| TLRQKAEADKMDKAVKDLVVLLFE | label 1 |
| TLRQKAEADKNDKAYKDLVVLLFE | label 1 |
| TLRCKAEADKNDKAVKDLVVLLFE | label 0 |
| TLRYKAEADKNDKAVKDLVVLLFE | label 0 |
| TLRQKAEADKNDKAVKDWVVLLFE | label 1 |
| TLRQKALADKNDKAVKDLVVLLFE | label 0 |
| TLRQKAEADKNDKCVKDLVVLLFE | label 0 |
| TLRQKAEADKNDKAVKDLVVLLFA | label 0 |
| TNRQKAEADKNDKAVKDLVVLLFE | label 0 |
| TLRQKAEADKNDKAVKDLVVLEFE | label 1 |
| TLRQKAEADKNDKAVVDLVVLLFE | label 1 |
| TLRQKAEADKNDKAVKDSVVLLFE | label 1 |
| TLRQKAEADKNDKAVKDLVVLLFW | label 0 |
| TLRQKAEADKNDKAVKDLIVLLFE | label 1 |
| TLRQKAEADKNDKAVKDLVVLRFE | label 1 |
| TLRQKAEADKNDKSVKDLVVLLFE | label 0 |
| TLRQKAQADKNDKAVKDLVVLLFE | label 0 |
| TLRQKAEADKNDKAVKDLVVLLKE | label 1 |
| TLRQKAEADKNRKAVKDLVVLLFE | label 1 |
| TGRQKAEADKNDKAVKDLVVLLFE | label 1 |
| TLRQYAEADKNDKAVKDLVVLLFE | label 1 |
| TLRQKAEADKNDKAVKDCVVLLFE | label 0 |
| TLRQKAEADKDDKAVKDLVVLLFE | label 0 |
| TLRQKAEADKNDKAVADLVVLLFE | label 0 |
| TLRQKAMADKNDKAVKDLVVLLFE | label 0 |
| TLSQKAEADKNDKAVKDLVVLLFE | label 1 |
| TLRQKAEADKNDKAVKPLVVLLFE | label 0 |
| TLRQKAEADKNDKAVKDLVVSLFE | label 1 |
| TLRFKAEADKNDKAVKDLVVLLFE | label 0 |
| TLRQKAEADKNDKAVKDLGVLLFE | label 1 |
| TLRQKAEACKNDKAVKDLVVLLFE | label 0 |
| TLRQKAEPDKNDKAVKDLVVLLFE | label 0 |
| TLRQKAEADKNDKAVKDLMVLLFE | label 0 |
| TLRQKAEADKQDKAVKDLVVLLFE | label 0 |
| TLRQKAEADKNDKAVKDLAVLLFE | label 1 |
| TLRQKAEADKNDKAVKDLVVLLFQ | label 0 |
| TLRQKAEADKNDKAVKHLVVLLFE | label 0 |
| TLRQKEEADKNDKAVKDLVVLLFE | label 1 |
| TLRQKAEADKNDKAVKLLVVLLFE | label 0 |
| TPRQKAEADKNDKAVKDLVVLLFE | label 1 |
| TLRQKAEAIKNDKAVKDLVVLLFE | label 0 |
| TLRQKAEADKNSKAVKDLVVLLFE | label 1 |
| TLRQKAEADKNDKAVKDDVVLLFE | label 1 |
| TLRQKAEADKNDKAVKDLVVLKFE | label 1 |
| TLRMKAEADKNDKAVKDLVVLLFE | label 0 |
| TLRQKAEADKNDKAVKDLTVLLFE | label 1 |
| TLRQKAEADKNDKAVKQLVVLLFE | label 0 |
| TLRQKAEAGKNDKAVKDLVVLLFE | label 1 |
| TLTQKAEADKNDKAVKDLVVLLFE | label 1 |
| TLRQKAEADKNDKEVKDLVVLLFE | label 1 |
| TLRQKAWADKNDKAVKDLVVLLFE | label 0 |
| TLRQKAEADKNDKAGKDLVVLLFE | label 1 |
| TLRQKAEADKNDKAVKTLVVLLFE | label 0 |
| TLRQKAEAQKNDKAVKDLVVLLFE | label 1 |
| TLRQKAEADKNDKAVKDLVCLLFE | label 1 |
| TLRQKAECDKNDKAVKDLVVLLFE | label 0 |
| TLRQKAEADKNDKAVKDLVALLFE | label 1 |
| TLRQKAEADKNLKAVKDLVVLLFE | label 0 |
| TLRQKAEADGNDKAVKDLVVLLFE | label 0 |
| FLRQKAEADKNDKAVKDLVVLLFE | label 0 |
| TLRQKAEADKNDKAVKDLVVLLFD | label 0 |
| TLRQKAEADKNDKAVKDLEVLLFE | label 1 |
| TLRQKAEADKNDKAVKDLVVLLFN | label 0 |
| TLRQKAEADKNDKAQKDLVVLLFE | label 0 |
| DLRQKAEADKNDKAVKDLVVLLFE | label 1 |
